experiment: solubility in water (stirred 18 hours, filtrate analyzed by HPLC)
Measured Property: solubility at 18 h (µg/mL)
Numbers only, in µg/mL.

{"Compound": "CC(=O)O[C@H]1C(=O)[C@]2(C)[C@@H](OC(=O)COC3O[C@H](CO)[C@@H](O)[C@H](O)[C@H]3O)C[C@H]3OC[C@@]3(OC(C)=O)[C@H]2[C@H](OC(=O)c2ccccc2)[C@]2(O)C[C@H](OC(=O)[C@H](O)[C@@H](NC(=O)c3ccccc3)c3ccccc3)C(C)=C1C2(C)C (stereo partly drawn)", "solubility at 18 h [µg/mL]": 14.7}
{"Compound": "CC(=O)O[C@H]1C(=O)[C@]2(C)[C@@H](OC(=O)COC3O[C@H](CO)[C@@H](O)[C@H](O)[C@H]3O)C[C@H]3OC[C@@]3(OC(C)=O)[C@H]2[C@H](OC(=O)c2ccccc2)[C@]2(O)C[C@H](OC(=O)[C@H](OC(=O)COC3O[C@H](CO)[C@@H](O)[C@H](O)[C@H]3O)[C@@H](NC(=O)c3ccccc3)c3ccccc3)C(C)=C1C2(C)C (stereo partly drawn)", "solubility at 18 h [µg/mL]": 48.4}

Next compound, please.
Q. Given CC(=O)O[C@H]1C(=O)[C@@]2(C)[C@H]([C@H](OC(=O)c3ccccc3)[C@]3(O)C[C@H](OC(=O)[C@H](OC(=O)COC4O[C@H](CO)[C@@H](O)[C@H](O)[C@H]4O)[C@@H](NC(=O)c4ccccc4)c4ccccc4)C(C)=C1C3(C)C)[C@]1(OC(C)=O)CO[C@@H]1C[C@@H]2O (stereo partly drawn) , state its recorded solubility at 18 h.
A. 30.6
